Target under test: PD-1/PD-L1 (Homo sapiens (Human), UniProt Q9NZQ7)
Sequence (Q9NZQ7 19-238): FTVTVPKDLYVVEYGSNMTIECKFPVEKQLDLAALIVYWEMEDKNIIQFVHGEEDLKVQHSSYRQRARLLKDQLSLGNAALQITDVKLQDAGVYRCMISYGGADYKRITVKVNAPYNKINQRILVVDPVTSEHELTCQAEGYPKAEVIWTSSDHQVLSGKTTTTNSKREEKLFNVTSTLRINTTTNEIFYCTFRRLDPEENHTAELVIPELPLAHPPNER
Protocol summary: Homogeneous Time-Resolved Fluorescence (HTRF) binding assay
Test settings: CisBio kit #64CUS000C-1, read-out: IC50 of compounds binding to PD-1/PD-L1
Description: Homogeneous Time-Resolved Fluorescence (HTRF) binding assay was used to determine the binding activity of the compound of the present invention to PD-1/PD-L1. The purchased kit (CisBio, #64CUS000C-1) contained reagents required for assays such as PD-1, PD-L1, anti-tag1-Eu, Anti-tag2-XL665, Dilute Buffer, and Detection Buffer. 1. The compound was formulated to 10 concentrations with a 3-fold gradient with 100% DMSO. 2. […] 7. HTRF values were read with Envision.
Parameter: pIC50
Remember the convention: pIC50 equals -log10 of concentration in molar.

Here are 3 molecules together with their reported answers.
{"Molecule": "Cc1cc(/C=C/c2cccc(-c3ccc4c(c3)OCCO4)c2C)cc(OCc2cccc(C#N)c2)c1CN1CCC[C@H]1CO", "pIC50": 5.82}
{"Molecule": "COc1cc(/C=C/c2cccc(-c3ccc4c(c3)OCCO4)c2C)cc(OC)c1CN1CCC[C@H]1CO", "pIC50": 6.62}
{"Molecule": "COc1cc(/C=C/c2cccc(-c3ccccc3)c2C)cc(OC)c1CNC(CCO)C(=O)O (centres unmarked)", "pIC50": 6.89}

# lookup: pIC50 of COc1cc(/C=C/c2cccc(-c3ccc4c(c3)OCCO4)c2C)cc(OC)c1CNC(C)(CO)C(=O)O (centres unmarked)
7.15

Same question for `Cc1cc(CN[C@H](CO)C(=O)O)ccc1/C=C/c1cccc(-c2ccccc2)c1C` please.
6.64

###

Target under test: PD-1/PD-L1 (Homo sapiens (Human), UniProt Q9NZQ7)
Protocol summary: Homogeneous Time-Resolved Fluorescence (HTRF) binding assay
Test settings: CisBio kit #64CUS000C-1, read-out: IC50 of compounds binding to PD-1/PD-L1
Source text: Homogeneous Time-Resolved Fluorescence (HTRF) binding assay was used to determine the binding activity of the compound of the present invention to PD-1/PD-L1. The purchased kit (CisBio, #64CUS000C-1) contained reagents required for assays such as PD-1, PD-L1, anti-tag1-Eu, Anti-tag2-XL665, Dilute Buffer, and Detection Buffer. 1. The compound was formulated to 10 concentrations with a 3-fold gradient with 100% DMSO. 2. […] 7. HTRF values were read with Envision.
Parameter: IC50 (nM)
Respond numerically; units are nM and should not be typed.

# lookup: IC50 of `Cc1cc(CN2CCC[C@@H](O)[C@@H]2C(N)=O)ccc1/C=C/c1cccc(-c2ccccc2)c1C`
920

###

Target under test: PD-1/PD-L1 (Homo sapiens (Human))
Protocol summary: Homogeneous Time-Resolved Fluorescence (HTRF) binding assay
Test settings: CisBio kit #64CUS000C-1, read-out: IC50 of compounds binding to PD-1/PD-L1
Reported pIC50 values for the following compounds.
Remember the convention: pIC50 equals -log10 of concentration in molar.

Here are 6 compounds together with their reported answers.
{"Compound": "Cc1c(/C=C/c2cc(CN[C@H](CO)C(=O)O)ccc2Cl)cccc1-c1ccccc1", "pIC50": 6.60}
{"Compound": "COc1cc(/C=C/c2cccc(-c3ccccc3)c2C)cc(OC)c1CN1CCC[C@H]1CO", "pIC50": 5.57}
{"Compound": "Cc1cc(CNC(CO)CO)ccc1/C=C/c1cccc(-c2ccccc2)c1C", "pIC50": 6.62}
{"Compound": "Cc1c(/C=C/c2ccc(CNCC(O)CC(=O)O)cn2)cccc1-c1ccc2c(c1)OCCO2 (centres unmarked)", "pIC50": 6.72}
{"Compound": "COc1cc(/C=C/c2cncc(-c3ccc4c(c3)OCCO4)c2C)cc(OC)c1CNC(C)(CO)C(=O)O (centres unmarked)", "pIC50": 5.54}
{"Compound": "COc1cc(/C=C/c2cccc(-c3ccccc3)c2C)cc(OC)c1CN1CCCC(O)C1C(=O)O (centres unmarked)", "pIC50": 6.34}

Now consider a different compound.
# lookup: pIC50 of Cc1cc(CNC(CO)C(=O)O)cnc1/C=C/c1cccc(-c2ccc3c(c2)OCCO3)c1C (centres unmarked)
7.44
